This collection of values is drawn from paper PMC6431256.

Measurement target: full-length Pin1 (human, UniProt Q13526 1-163)
Sequence (Q13526 whole entry): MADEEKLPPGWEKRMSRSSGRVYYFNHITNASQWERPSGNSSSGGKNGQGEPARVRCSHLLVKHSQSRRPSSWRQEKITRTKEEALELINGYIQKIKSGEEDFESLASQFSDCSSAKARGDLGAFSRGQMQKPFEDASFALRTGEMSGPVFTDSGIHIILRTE
Assay details: NMR titration
Non-standard residues stand in square brackets, D forms with d. No end group written: not given here. pT = C[C@@H](OP(=O)(O)O)[C@H](N)C(=O)O; pS = N[C@@H](COP(=O)(O)O)C(=O)O
Outcome measure: Kd (µM)
Use µM as the unit, but write only the number.

[[record]]
binder = "KKAVK[pS]PAKAKAW [histone H1.1 phosphopeptide KKAVKpSPAKAKAW]"
value_measured = 500


Here is another binder to look at.
Which Kd is listed for KATGAA[pT]PKKSAKW [histone H1.4 phosphopeptide KATGAApTPKKSAKW] ?
180
